target or test system: 5HT1A receptors (Rattus norvegicus, UniProt P19327)
Sequence (P19327 whole entry): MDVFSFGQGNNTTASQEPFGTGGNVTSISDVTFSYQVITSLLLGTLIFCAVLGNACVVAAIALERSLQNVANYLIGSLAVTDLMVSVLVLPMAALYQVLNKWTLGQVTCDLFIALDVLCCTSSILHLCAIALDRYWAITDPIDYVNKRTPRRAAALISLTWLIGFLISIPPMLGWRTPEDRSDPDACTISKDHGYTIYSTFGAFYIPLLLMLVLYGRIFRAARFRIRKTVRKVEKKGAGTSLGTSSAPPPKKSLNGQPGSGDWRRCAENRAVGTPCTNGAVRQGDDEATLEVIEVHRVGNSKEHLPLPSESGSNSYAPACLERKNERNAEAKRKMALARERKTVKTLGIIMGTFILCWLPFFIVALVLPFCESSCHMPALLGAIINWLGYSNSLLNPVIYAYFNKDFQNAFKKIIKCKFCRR
assay explanation: Binding to 5HT1A receptors (3H-8-OH-DPAT displacement, rat hippocampus membranes)
condition set: 5HT1A; rat hippocampus membrane, 0.5 nM 3H-8-OH-DPAT, pH 7.4, 25° C., 30 minutes; read-out: Binding IC50 3H-8-OH-DPAT
Documented IC50 across a set of compounds
measured property: IC50 (nM)

1. CN(C)CCc1c[nH]c2ccc(CS(=O)(=O)N3CCCC3)cc12.Cl [Compound 1, hydrochloride]: 825
2. CCOC(=O)N1CCN(S(=O)(=O)Cc2ccc3[nH]cc(CCN(C)C)c3c2)CC1 [Compound 11]: 850
